- System: COLO 205 colorectal tumor cells
- EXPERIMENT_SUMMARY: Tumor cell viability inhibition assay (CellTiter-Glo 2.0, 72 hours)
- Type: cell-based
- TEST_SETTINGS: COLO 205 cell viability
pIC50: −log10 of the molar value.
MEASURE: pIC50

[
  {
    "MOLECULE": "Cc1nc2c(c(=O)n1CC#Cc1ccc(Cl)cc1-c1ccnc3c(C(=O)NS(C)(=O)=O)csc13)CC(N(C)C1CC(F)(F)C1)CC2 (single isomer, unassigned)",
    "MEASURE": "pIC50",
    "RESULT_VALUE": "> 5.30"
  },
  {
    "MOLECULE": "Cc1cc(-c2cc(Cl)ccc2OCCn2c(C)nc3c(c2=O)CC(N(C)C2CC2)CC3)c2scc(C(=O)NS(C)(=O)=O)c2n1 (single isomer, unassigned)",
    "MEASURE": "pIC50",
    "RESULT_VALUE": "> 5.30"
  }
]

Note: attention shifts to another entry.
Requested field: pIC50. Item: Cc1cc(-c2cc(Cl)ccc2OCCn2c(C)nc3c(c2=O)CC(N2CC(C(F)(F)F)C2)CC3)c2scc(C(=O)NS(C)(=O)=O)c2n1 (single isomer, unassigned) > 5.30

###

Known IC50 of a selection of compounds
- Tested on: COLO 205 colorectal tumor cells
- EXPERIMENT_SUMMARY: Tumor cell viability inhibition assay (CellTiter-Glo 2.0, 72 hours)
- Format: cell-based
- TEST_SETTINGS: Homo sapiens, COLO 205, 72 h, COLO 205 cell viability

[
  {
    "COMPOUND": "COC1(C(F)(F)F)CC2CCC(C1)N2[C@H]1CCc2nc(C)n(CCOc3ccc(Cl)cc3-c3cc(C)nc4c(C(=O)O)csc34)c(=O)c2C1 (single isomer, unassigned) [Compound 503]",
    "IC50": "5 to 20 µM"
  },
  {
    "COMPOUND": "Cc1cc(-c2cc(Cl)ccc2OCCn2c(C)nc3c(c2=O)CC(N(C)Cc2cc[nH]n2)CC3)c2scc(C(=O)O)c2n1 (stereo not drawn) [Compound 186]",
    "IC50": "> 20 µM"
  },
  {
    "COMPOUND": "Cc1cc(-c2cc(Cl)ccc2OCCn2c(C)nc3c(c2=O)C[C@@H](N2CCC(C(F)(F)F)CC2)CC3)c2scc(C(=O)O)c2n1 (single isomer, unassigned) [Compound 374]",
    "IC50": "< 5 µM"
  },
  {
    "COMPOUND": "Cc1cc(-c2cc(Cl)ccc2OCCn2c(C)nc3c(c2=O)CC(N(C)CC(F)F)CC3)c2scc(C(=O)NS(C)(=O)=O)c2n1 (stereo not drawn) [Compound 65]",
    "IC50": "< 5 µM"
  },
  {
    "COMPOUND": "Cc1cc(-c2cc(Cl)ccc2OCCn2c(C)nc3c(c2=O)CC(N2CCC4(CCC(F)(F)CC4)C2)CC3)c2scc(C(=O)O)c2n1 (stereo not drawn) [Compound 170]",
    "IC50": "< 5 µM"
  }
]

Note: attention shifts to another entry.
Requested field: IC50. Item: CO[C@@H]1CCN([C@@H]2CCc3nc(C)n(CCOc4ccc(Cl)cc4-c4cc(C)nc5c(C(=O)O)csc45)c(=O)c3C2)C[C@@H]1F (single isomer, unassigned) [Compound 366] 5 to 20 µM
